I'd be grateful if you could share measured Anti-CD28 Fab (SEQ ID NOs: 202, 203) signal for these entries.
molecular target: T1, anti-CD28 Fab (SEQ ID NOs: 202, 203); test: phage binding ELISA; biotinylated Fab on neutravidin plate;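 further: clonal phage supernatants added to Fab wells pretreated with CD28 antigen or with blocking buffer only, bound phage read out via HRP-linked anti-M13 antibody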
T1 construct: biotinylated and captured on neutravidin coated plates in the phage ELISA
T1 sequence (VH, as listed by the source, chain 1 of 2): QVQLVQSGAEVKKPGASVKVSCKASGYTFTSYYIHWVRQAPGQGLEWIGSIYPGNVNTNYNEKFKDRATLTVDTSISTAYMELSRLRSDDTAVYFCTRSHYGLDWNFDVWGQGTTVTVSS
T1 sequence (VL, as listed by the source, chain 2 of 2): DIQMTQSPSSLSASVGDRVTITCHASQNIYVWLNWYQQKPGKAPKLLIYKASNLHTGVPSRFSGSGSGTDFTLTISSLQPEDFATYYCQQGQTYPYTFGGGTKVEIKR
One number for each entry.

Sample records with Anti-CD28 Fab (SEQ ID NOs: 202, 203) signal:
> print(dat)
                       binder   val
1  YCEGHLQIYMSKCL [Phage-346]  1.84
2  YCDGHVEPYLSKCL [Phage-393]  1.76
3  YCEGHLAQYMWKCL [Phage-300]  1.91
4  YCEGHAPQYLNKCL [Phage-358]  1.82
5  YCDGHRPEYMEKCL [Phage-315]   1.9
6  YCAGHSAEYMWKCL [Phage-433]  1.71

For the 3 binders below, give their Anti-CD28 Fab (SEQ ID NOs: 202, 203) signal values.
1. YCSGHSAEYMLKCL [Phage-411]
2. YCEGHLPQYFMKCL [Phage-440]
3. YCVGHLQEYMEKCL [Phage-389]

Ans:
1. 1.73
2. 1.7
3. 1.76
